Documented viability at 28.5 h, 10 µM across a set of compounds
assay comment: in vitro
settings: human, hela cells, % viability
Your answer is read as %, so omit the unit and give the number.

Lookup: State the recorded viability at 28.5 h, 10 µM for this entry: FC(F)(F)c1ccccc1NC(=S)Nc1ncn(Cc2ccc(Cl)c(Cl)c2)n1
Found: 87.1

Lookup: I would be grateful if you could share the reported viability at 28.5 h, 10 µM for N#CCCN(C(=O)Nc1ccccc1Cl)C1CCCCC1 .
Found: 86.8

Lookup: # lookup: viability at 28.5 h, 10 µM of NS(=O)(=O)c1cccc(NC(=O)c2cccnc2)c1
Found: 93.6

Lookup: # query: viability at 28.5 h, 10 µM of entry O=C1Nc2ccc(Br)cc2/C1=C1/SC(=S)N(C(Cc2ccccc2)C(=O)O)C1=O (centres unmarked)
Found: 95.6

Lookup: Given the compound Cc1ccc(-c2nc3ccccc3[nH]2)cc1NC(=O)CCCc1ccccc1 , what is its reported viability at 28.5 h, 10 µM?
Found: 92.9

Lookup: Item COc1ccc(CC(=O)c2ccc(O)cc2O)cc1 has what recorded viability at 28.5 h, 10 µM?
Found: 88.2

Lookup: Looking for the measured viability at 28.5 h, 10 µM of Oc1ccc(-c2nccnc2NCCc2ccncc2)cc1 , can you help?
Found: 94.3

Lookup: Record request: viability at 28.5 h, 10 µM value, item Cn1c(=O)n(CC(=O)Nc2ccc(F)cc2)c2cccnc21
Found: 101

Lookup: Can you look up the measured viability at 28.5 h, 10 µM of Oc1ccc2[nH]cc(CCNC(c3ccccc3)(c3ccccc3)c3ccccc3)c2c1 for me?
Found: 103

Lookup: Which viability at 28.5 h, 10 µM value is on record for Cc1c(C)n(Cc2ccco2)c2ncnc(NCC(=O)O)c12 ?
Found: 101

Lookup: // query viability at 28.5 h, 10 µM value for entry CC(C)(C)OC(=O)N1CCC[C@@H](C(=O)c2cccs2)C1
Found: 82.1

---

assay comment: in vitro
settings: human, hela cells, % viability
// reported viability at 28.5 h, 10 µM for each item listed
Form entry: value (%) — number only.

Example entries begin here.
molecule: O=S(=O)(NCc1nc2ccccc2[nH]1)c1ccc(Cl)c(Cl)c1
unit symbol: %
viability at 28.5 h, 10 µM: 86.2
//
molecule: CCCC1CCN(CC2C=Cc3cc(-c4ccc(S(C)(=O)=O)cc4)ccc3O2)CC1 (stereo not drawn)
unit symbol: %
viability at 28.5 h, 10 µM: 86.2
//
molecule: Cc1cc(NC(=O)c2cccc(Br)c2)nc2c1c(=O)oc1ccccc12
unit symbol: %
viability at 28.5 h, 10 µM: 94.3
//
molecule: CC(=O)c1cccc(NC(=O)CN2CCCC2c2cccs2)c1 (stereo not drawn)
unit symbol: %
viability at 28.5 h, 10 µM: 109
//
molecule: COC(=O)c1cc(Br)ccc1NC(=O)COc1ccccc1C
unit symbol: %
viability at 28.5 h, 10 µM: 89.4

Lookup: Consider the molecule N#Cc1cn([C@@H]2O[C@H](CO)[C@H](O)C2O)c2ncnc(N)c12 (stereo partly drawn) and give its measured viability at 28.5 h, 10 µM.
Found: 18

Lookup: Dear colleague, I am looking for the recorded viability at 28.5 h, 10 µM of the following molecule: CC(=O)Nc1ccc(NS(=O)(=O)c2ccc(O)c(C(=O)O)c2)cc1
Found: 115

Lookup: GET /values?readout=viability at 28.5 h, 10 µM&item= O=C1COC[C@H]([C@H](O)c2ccc(NC(=O)c3cnccn3)cc2)N1
Found: 104

Lookup: Find the recorded viability at 28.5 h, 10 µM belonging to CN1CCN(CCCOc2ccc(OCc3ccccc3)cc2)CC1 and report it.
Found: 98.2

---

List of viability at 28.5 h, 10 µM values.
assay comment: in vitro
settings: human, hela cells, % viability, bulk resorufin, single well
Numbers only; they are read as %.

Known results for molecules:
mol smiles: O=C(O)c1cc(N2C(=O)c3cccc4c([N+](=O)[O-])ccc(c34)C2=O)cc(N2C(=O)c3cccc4c([N+](=O)[O-])ccc(c34)C2=O)c1
viability at 28.5 h, 10 µM [%]: 91.8
//
mol smiles: COc1ccc(CC(=O)Nc2cccc(-c3ccc4c(c3)COC3(CCNCC3)O4)c2)cc1F
viability at 28.5 h, 10 µM [%]: 86.5
//
mol smiles: O=C(O)Cn1cc(C(=O)c2ccccc2F)c2ccccc21
viability at 28.5 h, 10 µM [%]: 92.7
//
mol smiles: CS(=O)(=O)c1ccc(-c2ccc3c(c2)COC2(CCN(C(=O)CC4CCCCC4)CC2)O3)cc1
viability at 28.5 h, 10 µM [%]: 96.7
//
mol smiles: CCNC(=S)N1CCN(CCNC=C2C(=O)NC(=O)NC2=O)CC1
viability at 28.5 h, 10 µM [%]: 111

Lookup: Any idea what its viability at 28.5 h, 10 µM is? The molecule is O=C(C1CCN(S(=O)(=O)c2cccs2)CC1)N1CCC(C(=O)O)(c2ccccc2)CC1
Found: 88

Lookup: I have this molecule here, CC(C)(C)c1ccccc1NC(=O)N1CCC2(CC1)OCCO2 , and I need its recorded viability at 28.5 h, 10 µM.
Found: 91.3

Lookup: Suppose we examine the molecule O=C(O)C=CC(=O)Nc1ccc(SC(F)(F)C(F)(F)C(F)(F)F)cc1 ; what viability at 28.5 h, 10 µM value has been reported?
Found: 107

---

System: C. trachomatis L2/434/Bu expressing GFP (CTL2-GFP)
Construct: L2/434/Bu GFP intracellular growth in HeLa cells
assay comment: microbe, parasite or virus in culture
Set-up: C. trachomatis total inclusion area by high-content imaging, normalised to DMSO
settings: Chlamydia trachomatis, HeLa, 28.5 h; total inclusion area; read-out: % of control remaining
measure: activity at 5 µM (%)
Reply numerically in %, unit not repeated.

Lookup: Give the measured activity at 5 µM of CC(C)(CNS(=O)(=O)c1ccc(F)cc1)CNS(=O)(=O)c1ccc(F)cc1 .
Found: 21.4

---

assay comment: in vitro
settings: human, hela cells, % viability
measure: viability at 28.5 h, 10 µM (%)
I only need the number, in %, no unit after it.

Lookup: Which viability at 28.5 h, 10 µM is reported for this molecule? COc1cc(-c2nc(N)cc3cccnc23)cc(OC)c1OC
Found: 101

Lookup: Which value of viability at 28.5 h, 10 µM has been reported for O=C(CCNC(=O)c1ccc(Br)o1)NCc1ccccc1Cl in the records?
Found: 81.5

Lookup: So what's the measured viability at 28.5 h, 10 µM for this one? Cn1c(-c2ccccc2)cnc1NC(=O)C1CN(S(=O)(=O)c2ccc(F)cc2)C1
Found: 98.4

Lookup: Would you mind telling me what viability at 28.5 h, 10 µM value was observed for Cc1ccc2[nH]c(SCC(=O)NC3CCCC3)nc2c1 ?
Found: 90

---

assay comment: in vitro
settings: human, hela cells, % viability
Reported values of viability at 28.5 h, 10 µM for individual entries
Respond with a number, then the unit of measure.

Recorded viability at 28.5 h, 10 µM, per entry:
compound: COc1ccc(-c2cnc(N)c(N3CCN(C)CC3)n2)c(OC)c1OC [CBK063489]
viability at 28.5 h, 10 µM: 103%
//
compound: COc1ccc(-c2nnc(SCC(=O)c3ccc(C)o3)o2)cc1 [CBK268334]
viability at 28.5 h, 10 µM: 88%
//
compound: O=C(CSc1nnc(-c2ccncc2)n1-c1ccc(Cl)cc1)Nc1ccccc1-c1ccccc1 [CBK266205]
viability at 28.5 h, 10 µM: 104%
//
compound: O=C(O)c1cc2oc3ccccc3c3ccccc3oc2cc1C(=O)Nc1cccc([N+](=O)[O-])c1 [CBK265500]
viability at 28.5 h, 10 µM: 99.1%
//
compound: O=C(NCc1ccccc1)c1ccnc2ccccc12 [CBK200191]
viability at 28.5 h, 10 µM: 83.7%
//
compound: c1ccc2c(c1)CCC(CNCCN1CCOCC1)O2 (stereo not shown) [CBK023956G]
viability at 28.5 h, 10 µM: 94%
//
compound: Cc1[nH]c(=O)[nH]c(=O)c1C(=O)Nc1ccccc1 [CBK116181]
viability at 28.5 h, 10 µM: 96.4%
//
compound: O=C1CC[C@H](NC(=O)c2cccs2)C(c2cccnc2)N1 (stereo partly shown) [CBK282901]
viability at 28.5 h, 10 µM: 98.5%
//
compound: CN1CCN(NC(=O)c2cc(-c3ccc(Cl)cc3)[nH]n2)CC1 [CBK116553]
viability at 28.5 h, 10 µM: 90.8%
//
compound: CC(/C=C/c1ccc(N(C)C)cc1)=N\NC(=N)SC1CC(=O)N(c2ccc(C(=O)O)cc2)C1=O (stereo not shown) [CBK262460]
viability at 28.5 h, 10 µM: 91.6%

Lookup: Need viability at 28.5 h, 10 µM, item Cn1nc(-c2cccs2)cc1[C@H]1CN2CC[C@H]1C[C@@H]2CNC(=O)c1ccco1 [CBK289100]
Found: 86.6%

Lookup: Quick one: viability at 28.5 h, 10 µM of O=C(Nc1ccc(N2CCN(C(=O)c3ccccc3F)CC2)cc1)c1nc[nH]n1 [CBK269497] ?
Found: 107%
